Please respond with reported self-cleavage for every item in the list.
B1: LINE1-full (parent)
chain: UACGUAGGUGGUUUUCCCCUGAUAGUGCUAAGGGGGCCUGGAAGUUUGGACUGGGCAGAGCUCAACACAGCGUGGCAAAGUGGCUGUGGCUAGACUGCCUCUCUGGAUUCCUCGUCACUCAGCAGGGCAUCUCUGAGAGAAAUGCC

# Variants of: B1
# method_description: self-cleavage, relative activity (ratio to wild type); higher = more cleavage; in vitro, sequencing; the parent is a self-cleaving ribozyme
Provide a numeric answer; units are not to be included.

Exercise: Which measured self-cleavage value corresponds to U100A U104A ?
Solution: 1.51

Exercise: Next variant up: U29A U45G
Solution: 0.38

Exercise: Consider next the variant U39C G80A in the same way.
Solution: 1.06

Exercise: Also A50G A65C ?
Solution: 0.1

Exercise: Now try U39C U81A .
Solution: 1.44

Exercise: Continue with C66A A141G
Solution: 0.04

Exercise: Next entry: U115A A140G
Solution: 1.27

Exercise: What do we get for U13A G48A ?
Solution: 1.01

Exercise: Same thing, different variant: U46A A64C
Solution: 0.24

Exercise: Request: U46A U130G
Solution: 1.39

Exercise: Could you do the same for A43G U81C , please?
Solution: 1.32

Exercise: Follow-up entry: A2C A121G
Solution: 0.95

Exercise: One more variant: G49C A141U
Solution: 1.55

Exercise: # iterate: U23A A94G
Solution: 0.47

Exercise: Moving on to the next variant: U12C U143C
Solution: 1.46

Exercise: Please give the result for A65U A121U too.
Solution: 0.24

Exercise: Lookup G72C A77G
Solution: 2.28

Exercise: Now the same for U5C A138G
Solution: 1.18

Exercise: Further, for A59G A136U ?
Solution: 0.09

Exercise: Now try C113U A124G .
Solution: 1.31

Exercise: And then A64C A69G , what is it?
Solution: 0.35

Exercise: Would you kindly repeat that for U62G C84G ?
Solution: 0.49

Exercise: Please do the same for G7C U85C as well.
Solution: 1.26

Exercise: And the next one, G55C U108C ?
Solution: 0.18

Exercise: Could you do the same for G72U U132C , please?
Solution: 1.11

Exercise: Would you mind doing A121G U130A as well?
Solution: 1.25

Exercise: Follow-up entry: A67G U119A
Solution: 0.31

Exercise: Likewise for A50G A94G ?
Solution: 0.32

Exercise: Same thing, different variant: U87A U108A
Solution: 0.06

Exercise: Proceed to A67G G74A
Solution: 0.45

Exercise: What about A57U A140G ?
Solution: 0.11

Exercise: Again, but for G32U A65G
Solution: 0.12

Exercise: Please give the result for A92U A140G too.
Solution: 0.53

Exercise: Would you mind doing A69G U108A as well?
Solution: 0.07

Exercise: One more variant: A59G U132C
Solution: 0.11

Exercise: Also C3U U23A , if possible.
Solution: 0.71

Exercise: Same for G80A
Solution: 1.93

Exercise: Let us now turn to G60A U73C
Solution: 0.02

Exercise: Further, for A69U ?
Solution: 0.06

Exercise: Can you check U100C U102C next?
Solution: 1.65

Exercise: Also need G83U , thanks.
Solution: 0.86

Exercise: Then G48U A129G ?
Solution: 1.23

Exercise: Would you mind doing C28G U143A as well?
Solution: 1.45

Exercise: And then A42U A43U , what is it?
Solution: 0.84

Exercise: Try this variant next: A50G U73G
Solution: 0.34

Exercise: // query: U108C U119C
Solution: 2

Exercise: Also need A57G U87C , thanks.
Solution: 0.11

Exercise: Now try U115C A121U .
Solution: 2.06

Exercise: Also need U46C G105A , thanks.
Solution: 1.16

Exercise: Quick one: C63U A124G
Solution: 0.09

Exercise: Let us now turn to U45A A57C
Solution: 0.14

Exercise: Consider next the variant A50U A59U in the same way.
Solution: 0.67

Exercise: Try this variant too: U96C G126A
Solution: 0.15

Exercise: Now consider G83A U115C and answer again.
Solution: 1.47

Exercise: Request: A124C
Solution: 1.56
